Test system: IGROV-ET
Assay: SRB colorimetric cell growth inhibition assay, IGROV-ET (ET-743 resistant)
Format: cell-based
Details: Homo sapiens, IGROV-ET; GI=growth inhibition; read-out: GI50 IGROV-ET
Kindly apply the following: True if GI50 is less than 3 µM, False in every other case.

Example results:
| compound | assayed_system | label_class |
| --- | --- | --- |
| COc1cc2ccn3c(c(-c4ccc(OC(=O)[C@H](C)N)c(OC)c4)c4c5cc(OC)c(OC(=O)[C@H](C)N)cc5oc(=O)c43)c2cc1OC [Compound 20] | IGROV-ET | True |
| COc1cc(-c2c3c4cc(OC)c(O)cc4oc(=O)c3n3ccc4cc(OC)c(OC)cc4c23)ccc1O [Compound 26] | IGROV-ET | True |
| COc1cc2ccn3c(c(-c4ccc(OC(=O)[C@H](C)NC(=O)OC(C)(C)C)c(OC)c4)c4c5cc(OC)c(OC(=O)[C@H](C)NC(=O)OC(C)(C)C)cc5oc(=O)c43)c2cc1OC [Compound 77] | IGROV-ET | True |

GI50 strictly < 3 µM for this compound? COc1cc(-c2c3c4cc(OC)c(OC(=O)CCC5CCCCC5)cc4oc(=O)c3n3ccc4cc(OC(=O)CCC5CCCCC5)c(OC)cc4c23)ccc1OC(=O)CCC1CCCCC1 [Compound 12]
False

GI50 strictly < 3 µM for this compound? COc1cc2c(cc1OC)-c1c(-c3ccc(OC(=O)CCCC[C@@H]4SC[C@@H]5NC(=O)N[C@@H]54)c(OC)c3)c3c4cc(OC)c(OC(=O)CCCC[C@@H]5SC[C@@H]6NC(=O)N[C@@H]65)cc4oc(=O)c3n1CC2 [Compound 47]
True

GI50 strictly < 3 µM for this compound? COc1cc(-c2c3c4cc(OC)c(OC(C)C)cc4oc(=O)c3n3ccc4c(OC(C)C)c(OC)c(OC)c(COS(C)(=O)=O)c4c23)ccc1OC(C)C [Compound 101]
False

GI50 strictly < 3 µM for this compound? COc1cc(-c2c3c4cc(OC)c(OC(C)C)cc4oc(=O)c3n3ccc4c([N+](=O)[O-])cccc4c23)ccc1OC(C)C [Compound 54]
False

GI50 strictly < 3 µM for this compound? COc1cc(-c2c3c4cc(OC)c(OC(=O)[C@H](C)NC(=O)OC(C)(C)C)cc4oc(=O)c3n3ccc4cc(OC(=O)[C@H](C)NC(=O)OC(C)(C)C)c(OC)cc4c23)ccc1OC(=O)[C@H](C)NC(=O)OC(C)(C)C [Compound 41]
True

GI50 strictly < 3 µM for this compound? COc1cc2c(cc1O)CCn1c-2c(Br)c2c3cc(OC)c(O)cc3oc(=O)c21 [Compound 188]
True

GI50 strictly < 3 µM for this compound? C=CCOC(=O)N[C@@H](C)C(=O)Oc1ccc(-c2c3c4cc(OC)c(OC(=O)[C@H](C)NC(=O)OCC=C)cc4oc(=O)c3n3ccc4cc(OC(=O)[C@H](C)NC(=O)OCC=C)c(OC)cc4c23)cc1OC [Compound 210]
True
